- ASSAY_REMARKS: Cytotoxicity against human AHH-1 cells assessed as residual cell viability at 1 uM measured after 72 hrs by MTT assay relative to control
- Assay type: toxicity, cell-based
- MEASUREMENT_PARAMETERS: read-out: Activity
A collection of compounds and their measured viability at 72 h, 1 µM

# STRUCTURE_SMILES, viability at 72 h, 1 µM / %
data = [
    ("COc1cc2nc(NCCCN(C)C)nc(NC3CCN(Cc4ccc(-c5ccccc5)cc4)CC3)c2cc1OC", 79.1),
    ("COc1cc2nc(NCCCN(C)C)nc(NC3CCN(Cc4ccc5ccccc5c4)CC3)c2cc1OC", 81.5),
    ("COc1cc2c(NC3CCN(Cc4ccccc4)CC3)nc(NCCCN(C)C)nc2cc1OCc1ccccc1", 90),
]

---

- ASSAY_REMARKS: Cytotoxicity against HMEC cells assessed as residual cell viability at 1 uM incubated for 72 hrs by MTT assay relative to control
- Assay type: toxicity, cell-based
- MEASUREMENT_PARAMETERS: human, read-out: Activity

# STRUCTURE_SMILES, viability at 72 h, 1 µM (%)
measured = [
    ("COc1cc2nc(NCCCN(C)C)nc(NC3CCN(Cc4ccc5ccccc5c4)CC3)c2cc1OC", 96.5),
    ("COc1cc2nc(NCCCN(C)C)nc(NC3CCN(Cc4ccc(-c5ccccc5)cc4)CC3)c2cc1OC", 88.1),
    ("COc1cc2c(NC3CCN(Cc4ccccc4)CC3)nc(NCCCN(C)C)nc2cc1OCc1ccccc1", 76),
]

---

- SYSTEM: LSD1/CoREST complex (Homo sapiens, UniProt O60341)
- ASSAY_REMARKS: Binding affinity to human LSD1/CoREST assessed as dissociation constant by competitive fluorescence polarization assay
ASSAY_ENDPOINT: Kd (nM)

# STRUCTURE_SMILES, ASSAY_ENDPOINT, UNIT, VALUE_REPORTED
records = [
    ("COc1cc2nc(NCCCN(C)C)nc(NCCCNc3ccccc3)c2cc1OC", "Kd", "nM", 228),
    ("COc1cc2nc(NCCCN(C)C)nc(NC3CCN(Cc4cccc5ccccc45)CC3)c2cc1OC", "Kd", "nM", 84),
    ("COc1cc2nc(NCCCCN(C)C)nc(NC3CCN(Cc4ccccc4)CC3)c2cc1OC", "Kd", "nM", 112),
    ("COc1cc2nc(NCCCN(C)C)nc(NC3CCN(Cc4ccc(-c5ccccc5)cc4)CC3)c2cc1OC", "Kd", "nM", 81),
    ("COc1cc2nc(NCCCCCN(C)C)nc(NC3CCN(Cc4ccccc4)CC3)c2cc1OC", "Kd", "nM", 127),
    ("COc1cc2nc(NCCCN(C)C)nc(NC3CCN(C(=O)OC(C)(C)C)CC3)c2cc1OC", "Kd", "nM", 82),
    ("COc1cc2nc(NCCCN(C)C)nc(NCCNc3cccc4ccccc34)c2cc1OC", "Kd", "nM", 230),
    ("COc1cc2nc(NCCCN(C)C)nc(NC3CCN(C)CC3)c2cc1OC", "Kd", "nM", 1490),
    ("COc1cc2nc(NCCCN3CCN(C)CC3)nc(NC3CCN(Cc4ccccc4)CC3)c2cc1OC", "Kd", "nM", 191),
    ("COc1cc2nc(NCCCN(C)C)nc(NC3CCN(Cc4ccc5ccccc5c4)CC3)c2cc1OC", "Kd", "nM", 75),
    ("C#CCN(C)CCCNc1nc(NC2CCN(Cc3ccccc3)CC2)c2cc(OC)c(OC)cc2n1", "Kd", "nM", 64),
    ("COc1cc2nc(NCCCN3CCCCC3)nc(NC3CCN(Cc4ccccc4)CC3)c2cc1OC", "Kd", "nM", 68),
    ("COc1cc2nc(NCCCN3CCCC3)nc(NC3CCN(Cc4ccccc4)CC3)c2cc1OC", "Kd", "nM", 82),
    ("COc1cc2nc(NCCN(C)C)nc(NC3CCN(Cc4ccccc4)CC3)c2cc1OC", "Kd", "nM", 237),
    ("COc1cc2nc(NCCCN(C)C)nc(NC3CCNCC3)c2cc1OC", "Kd", "nM", 1560),
    ("Cc1ccc(-c2ncc(OC[C@@H]3CCNC3)cc2-c2ccc(C#N)cc2)cc1", "Kd", "nM", 14),
    ("COc1cc2nc(NC3CCN(C)CC3)nc(NC3CCN(Cc4ccccc4)CC3)c2cc1OC", "Kd", "nM", 82),
    ("COc1cc2nc(N(C)CCCN(C)C)nc(NC3CCN(Cc4ccccc4)CC3)c2cc1OC", "Kd", "nM", 1300),
    ("COc1cc2nc(NCCCN(C)C)nc(N(C)C3CCN(Cc4ccccc4)CC3)c2cc1OC", "Kd", "nM", 356),
]
